# assay_details: Metabolic stability in human liver microsomes
# Assay type: ADME, Microsome
# test_context: read-out: Stabilty
value_kind: microsomal CLint (µL/min/mg)

a: CC(=O)NC(C)c1ccc(OCc2c(F)cc(Oc3cccc(OCC4CC4)c3)cc2F)nc1 (configuration not stated)
b: CC(=O)NC(C)c1ccc(OCc2c(F)cc(Oc3cccc(OCC4CC4)c3)cc2F)cc1 (configuration not stated)
Just curious, which one has the larger microsomal CLint reading, a or b ? Please respond with the label that marks your chosen entry.
b
(b: 30 µL/min/mg, a: 12 µL/min/mg)

* * *

# assay_details: Lipophilicity, log D of compound
# Format: physicochemical
# test_context: octanol/water
value_kind: logD

CC(=O)NC(C)c1ccc(OCc2c(F)cc(Oc3cccc(OCC4CC4)c3)cc2F)nc1 (configuration not stated)    4.82
CC(=O)NC(C)c1ccc(OCc2c(F)cc(Oc3cccc(OCC4CC4)c3)cc2F)cc1 (configuration not stated)    5.01

* * *

# system_under_test: Acetyl-CoA carboxylase 1 (Homo sapiens)
# assay_details: Inhibition of recombinant human N-terminal His6-tagged ACC1 expressed in baculovirus infected Sf9 insect cells using acetyl-CoA as substrate preincubated for 60 mins followed by substrate addition and measured after 30 mins Rapidfire-Mass spectrometry
value_kind: IC50 (nM)

COCCc1cccc(Oc2ccc(-c3ccc(C(C)NC(C)=O)cc3)cc2)c1 (stereo not drawn)    130

A: CCCCOc1cccc(Oc2ccc(-c3ccc(C(C)NC(C)=O)cc3)cc2)c1 (stereo not drawn)
B: CC(=O)NC(C)c1ccc(OCc2c(F)cc(Oc3cccc(OCC4CC4)c3)cc2F)cn1 (stereo not drawn)
I'm curious whether A or B has the smaller IC50 number. Which is it? Please respond with the label that marks your chosen entry.
B
(B: 38 nM, A: 120 nM)

* * *

# system_under_test: Acetyl-CoA carboxylase 2 (Homo sapiens)
# assay_details: Inhibition of recombinant human N-terminal His6-tagged ACC2 expressed in baculovirus infected Sf9 insect cells using acetyl-CoA as substrate preincubated for 60 mins followed by substrate addition and measured after 30 mins Rapidfire-Mass spectrometry
Below is a list of entries, each paired with its recorded IC50 value.

CC(=O)NC(C)c1ccc(OCc2c(F)cc(Oc3cccc(OCC4CC4)c3)cc2F)cc1 (centres undefined)    > 10 µM

For the compound CC(=O)NC(C)c1ccc(-c2ccc(Oc3cccc(OCC4CC4)c3)cc2)cc1 (centres undefined) , what IC50 is on record?
0.15 µM

For the compound CC(=O)NC(C)c1ccc(OCc2ccc(Oc3cccc(OCC4CC4)c3)nc2)cc1 (centres undefined) , what IC50 is on record?
> 10 µM

For the compound CC(=O)NC(C)c1ccc(OCc2ccc(Oc3cccc(OCC4CC4)c3)cc2)cc1 (centres undefined) , what IC50 is on record?
> 10 µM

For the compound CC(=O)NC(C)c1ccc(OCc2c(F)cc(Oc3cccc(OCC4CC4)c3)cc2F)cn1 (centres undefined) , what IC50 is on record?
> 10 µM

For the compound CC(=O)NC(C)c1ccc(OCc2ccc(Oc3cccc(OCC4CC4)c3)cc2F)cc1 (centres undefined) , what IC50 is on record?
> 10 µM

For the compound COCCc1ccc(Oc2ccc(-c3ccc(C(C)NC(C)=O)cc3)cc2)cc1 (centres undefined) , what IC50 is on record?
> 30 µM

For the compound COCCc1cccc(Oc2ccc(-c3ccc(C(C)NC(C)=O)cc3)cc2)c1 (centres undefined) , what IC50 is on record?
0.098 µM

For the compound CC(=O)NC(C)c1cnc(OCc2c(F)cc(Oc3cccc(OCC4CC4)c3)cc2F)cn1 (centres undefined) , what IC50 is on record?
> 10 µM

* * *

# assay_details: Solubility of compound in pH 6.8 buffer
# Type: physicochemical
value_kind: solubility (µg/mL)

A: CC(=O)NC(C)c1cnc(OCc2c(F)cc(Oc3cccc(OCC4CC4)c3)cc2F)cn1 (stereo not given)
B: CC(=O)NC(C)c1ccc(OCc2c(F)cc(Oc3cccc(OCC4CC4)c3)cc2F)cn1 (stereo not given)
I'm curious whether A or B has the smaller solubility number. Which is it? Please respond with the label that marks your chosen entry.
A
(A: 0.46 µg/mL, B: 1.5 µg/mL)

* * *

# assay_details: Oral bioavailability in ICR mouse at 1 mg/kg
# Type: ADME, organism-based
# test_context: in vivo
value_kind: bioavailability (%)

I: CC(=O)NC(C)c1ccc(OCc2c(F)cc(Oc3cccc(OCC4CC4)c3)cc2F)nc1 (configuration not stated)
II: CC(=O)NC(C)c1ccc(OCc2c(F)cc(Oc3cccc(OCC4CC4)c3)cc2F)cc1 (configuration not stated)
Just curious, which one has the larger bioavailability reading, I or II ? Please respond with the label that marks your chosen entry.
I

* * *

# assay_details: Metabolic stability in mouse liver microsomes
# Format: ADME, Microsome
# test_context: read-out: Stabilty
value_kind: microsomal CLint (µL/min/mg)

a: CC(=O)NC(C)c1ccc(OCc2c(F)cc(Oc3cccc(OCC4CC4)c3)cc2F)nc1 (configuration not stated)
b: CC(=O)NC(C)c1ccc(OCc2c(F)cc(Oc3cccc(OCC4CC4)c3)cc2F)cc1 (configuration not stated)
Just curious, which one has the larger microsomal CLint reading, a or b ? Please respond with the label that marks your chosen entry.
b
(b: 36 µL/min/mg, a: 17 µL/min/mg)

* * *

# system_under_test: Acetyl-CoA carboxylase 1 (Homo sapiens)
# assay_details: Inhibition of recombinant human N-terminal His6-tagged ACC1 expressed in baculovirus infected Sf9 insect cells using acetyl-CoA as substrate preincubated for 60 mins followed by substrate addition and measured after 30 mins Rapidfire-Mass spectrometry
value_kind: IC50 (nM)

Example cases with answers are listed next.
CC(=O)NC(C)c1cnc(OCc2c(F)cc(Oc3cccc(OCC4CC4)c3)cc2F)cn1 (stereo not given)    89
CC(=O)NC(C)c1ccc(OCc2ccc(Oc3cccc(OCC4CC4)c3)cn2)cc1 (stereo not given)    1200
CC(=O)NC(C)c1ccc(OCc2c(F)cc(Oc3cccc(OCC4CC4)c3)cc2F)nn1 (stereo not given)    31

A: CC(=O)NC(C)c1ccc(OCc2ccc(Oc3cccc(OCC4CC4)c3)cc2)cc1 (stereo not given)
B: CC(=O)NC(C)c1ccc(OCc2c(F)cc(Oc3cccc(OCC4CC4)c3)cc2F)nc1 (stereo not given)
C: CC(=O)NC(C)c1ccc(Oc2ccc(Oc3cccc(OCC4CC4)c3)cc2)cc1 (stereo not given)
# sort list by recorded IC50, greatest to least Please write the labels in the order that was asked for.
A, C, B

A: CC(=O)NC(C)c1ccc(-c2ccc(Oc3cccc(OCC4CC4)c3)cc2)cc1 (stereo not given)
B: CC(=O)NC(C)c1ccc(OCc2ccc(Oc3cccc(OCC4CC4)c3)nc2)cc1 (stereo not given)
Just curious, which one has the larger IC50 reading, A or B ? Please respond with the label that marks your chosen entry.
B

A: CC(=O)NC(C)c1ccc(OCc2ccc(Oc3cccc(OCC4CC4)c3)cc2F)cc1 (stereo not given)
B: CC(=O)NC(C)c1ccc(OCc2c(F)cc(Oc3cccc(OCC4CC4)c3)cc2F)cc1 (stereo not given)
Just curious, which one has the larger IC50 reading, A or B ? Please respond with the label that marks your chosen entry.
A
(A: 69 nM, B: 15 nM)

* * *

# system_under_test: Acetyl-CoA carboxylase 2 (Homo sapiens, UniProt O00763)
# Sequence (O00763 whole entry): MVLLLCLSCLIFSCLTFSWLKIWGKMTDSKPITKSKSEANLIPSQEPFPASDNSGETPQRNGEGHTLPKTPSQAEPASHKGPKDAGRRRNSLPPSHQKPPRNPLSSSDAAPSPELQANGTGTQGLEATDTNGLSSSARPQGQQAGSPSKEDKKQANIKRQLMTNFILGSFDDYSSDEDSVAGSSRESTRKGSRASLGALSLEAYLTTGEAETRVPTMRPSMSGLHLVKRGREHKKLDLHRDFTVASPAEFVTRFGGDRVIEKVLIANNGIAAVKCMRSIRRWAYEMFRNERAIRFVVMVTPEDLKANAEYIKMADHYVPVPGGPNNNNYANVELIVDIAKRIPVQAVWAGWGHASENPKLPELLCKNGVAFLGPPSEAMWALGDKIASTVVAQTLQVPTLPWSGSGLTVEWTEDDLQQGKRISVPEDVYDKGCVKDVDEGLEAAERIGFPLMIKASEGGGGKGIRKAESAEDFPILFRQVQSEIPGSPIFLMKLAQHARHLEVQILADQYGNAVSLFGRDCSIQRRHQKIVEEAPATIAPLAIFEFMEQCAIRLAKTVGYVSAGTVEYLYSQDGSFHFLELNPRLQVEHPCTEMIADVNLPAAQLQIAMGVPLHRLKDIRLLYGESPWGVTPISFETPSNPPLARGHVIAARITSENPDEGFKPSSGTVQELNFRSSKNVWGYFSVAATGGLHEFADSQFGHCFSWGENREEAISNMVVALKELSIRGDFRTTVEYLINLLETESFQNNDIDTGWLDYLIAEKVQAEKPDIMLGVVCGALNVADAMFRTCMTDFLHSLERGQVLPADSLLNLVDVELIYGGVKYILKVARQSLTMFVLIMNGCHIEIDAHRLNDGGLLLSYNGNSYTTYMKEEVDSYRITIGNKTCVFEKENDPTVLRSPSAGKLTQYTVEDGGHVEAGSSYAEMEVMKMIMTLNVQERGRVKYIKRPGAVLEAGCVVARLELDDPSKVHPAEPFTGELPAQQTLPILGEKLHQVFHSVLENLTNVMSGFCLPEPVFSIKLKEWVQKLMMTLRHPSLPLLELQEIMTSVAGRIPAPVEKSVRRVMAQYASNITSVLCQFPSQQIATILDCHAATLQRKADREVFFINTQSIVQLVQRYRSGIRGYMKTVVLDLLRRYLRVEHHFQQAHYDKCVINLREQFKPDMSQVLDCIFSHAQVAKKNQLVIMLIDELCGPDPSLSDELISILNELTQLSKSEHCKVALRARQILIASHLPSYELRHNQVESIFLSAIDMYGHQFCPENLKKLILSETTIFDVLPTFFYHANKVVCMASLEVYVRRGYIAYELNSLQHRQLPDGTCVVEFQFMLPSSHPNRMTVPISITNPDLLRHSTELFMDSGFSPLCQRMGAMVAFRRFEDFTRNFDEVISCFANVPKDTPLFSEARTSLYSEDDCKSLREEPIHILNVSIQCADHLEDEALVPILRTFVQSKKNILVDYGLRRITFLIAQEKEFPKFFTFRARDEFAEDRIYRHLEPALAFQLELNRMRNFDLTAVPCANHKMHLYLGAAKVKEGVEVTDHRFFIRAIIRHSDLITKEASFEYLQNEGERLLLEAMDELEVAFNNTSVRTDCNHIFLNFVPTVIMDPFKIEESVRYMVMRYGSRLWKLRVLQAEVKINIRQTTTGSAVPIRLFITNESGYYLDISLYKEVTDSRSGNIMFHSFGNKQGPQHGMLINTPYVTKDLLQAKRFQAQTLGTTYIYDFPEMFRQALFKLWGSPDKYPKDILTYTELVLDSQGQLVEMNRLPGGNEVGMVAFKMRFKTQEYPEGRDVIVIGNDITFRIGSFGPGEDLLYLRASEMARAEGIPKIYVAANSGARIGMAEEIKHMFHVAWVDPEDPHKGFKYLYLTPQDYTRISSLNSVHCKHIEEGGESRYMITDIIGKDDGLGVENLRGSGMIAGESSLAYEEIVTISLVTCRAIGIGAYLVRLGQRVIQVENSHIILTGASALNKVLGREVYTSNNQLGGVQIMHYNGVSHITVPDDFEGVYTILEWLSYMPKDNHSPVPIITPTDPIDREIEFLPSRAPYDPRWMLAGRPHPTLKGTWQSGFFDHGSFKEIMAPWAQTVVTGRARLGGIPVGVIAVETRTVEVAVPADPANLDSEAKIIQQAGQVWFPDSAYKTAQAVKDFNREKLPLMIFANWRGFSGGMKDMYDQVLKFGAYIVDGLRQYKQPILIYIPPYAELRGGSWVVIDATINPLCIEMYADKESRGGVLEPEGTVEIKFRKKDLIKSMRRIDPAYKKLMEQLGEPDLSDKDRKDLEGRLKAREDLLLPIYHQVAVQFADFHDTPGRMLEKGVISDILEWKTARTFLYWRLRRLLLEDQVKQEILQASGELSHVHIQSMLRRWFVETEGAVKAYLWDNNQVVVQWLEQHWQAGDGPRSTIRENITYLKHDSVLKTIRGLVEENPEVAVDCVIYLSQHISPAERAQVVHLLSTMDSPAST
# assay_details: Inhibition of recombinant human N-terminal His6-tagged ACC2 expressed in baculovirus infected Sf9 insect cells using acetyl-CoA as substrate preincubated for 60 mins followed by substrate addition and measured after 30 mins Rapidfire-Mass spectrometry
value_kind: IC50 (nM)

I: CCCCOc1cccc(Oc2ccc(-c3ccc(C(C)NC(C)=O)cc3)cc2)c1 (stereo not given)
II: CC(=O)NC(C)c1ccc(Oc2ccc(Oc3cccc(OCC4CC4)c3)cc2)cc1 (stereo not given)
I'm curious whether I or II has the smaller IC50 number. Which is it? Please respond with the label that marks your chosen entry.
II
(II: 20 nM, I: 210 nM)

* * *

# assay_details: Solubility of compound in pH 6.8 buffer
# Type: physicochemical
Below is a list of entries, each paired with its recorded solubility value.

Example cases with answers are listed next.
CC(=O)NC(C)c1ccc(OCc2c(F)cc(Oc3cccc(OCC4CC4)c3)cc2F)nn1 (stereo not drawn)    2.3 µg/mL
CC(=O)NC(C)c1ccc(OCc2c(F)cc(Oc3cccc(OCC4CC4)c3)cc2F)nc1 (stereo not drawn)    < 0.23 µg/mL

As a next step, examine the molecule that follows.
For the molecule CC(=O)NC(C)c1ccc(OCc2c(F)cc(Oc3cccc(OCC4CC4)c3)cc2F)cc1 (stereo not drawn) , what solubility is on record?
< 0.21 µg/mL

* * *

Below is a list of entries, each paired with its recorded pIC50 value.
# system_under_test: Acetyl-CoA carboxylase 2 (Homo sapiens)
# assay_details: Inhibition of recombinant human N-terminal His6-tagged ACC2 expressed in baculovirus infected Sf9 insect cells using acetyl-CoA as substrate preincubated for 60 mins followed by substrate addition and measured after 30 mins Rapidfire-Mass spectrometry
pIC50: −log10 of the molar value.

CC(=O)NC(C)c1ccc(OCc2c(F)cc(Oc3cccc(OCC4CC4)c3)cc2F)nn1 (stereo not drawn)    < 5.00
CC(=O)NC(C)c1ccc(OCc2ccc(Oc3cccc(OCC4CC4)c3)cn2)cc1 (stereo not drawn)    < 5.00

As a next step, examine the molecule that follows.
For the molecule CC(=O)NC(C)c1ccc(OCc2c(F)cc(Oc3cccc(OCC4CC4)c3)cc2F)nc1 (stereo not drawn) , what pIC50 is on record?
< 5.00
